- protocolDetails: Solubility of surfactant in BOE (saturation point)
- Assay type: physicochemical
- conditionsUsed: BOE 7-1; prior to filtration
testReadout: Solubility In BOE

* NC1CCCC1 [Surfactant C, Cyclopentylamine] | ≦400 ppm
* O=C(O)C(F)(F)C(F)(F)C(F)(F)C(F)(F)C(F)(F)C(F)(F)C(F)(F)F [Surfactant D, Perfluorooctanoic Acid] | ≦100 ppm
* O=C(O)C(F)(F)C(F)(F)C(F)(F)C(F)(F)C(F)(F)C(F)(F)C(F)(F)C(F)(F)F [Surfactant F, Perfluorononanoic Acid] | ≦100 ppm
* O=C(O)C(F)(F)C(F)(F)C(F)(F)C(F)(F)F [Surfactant G, Perfluoropentanoic Acid] | ≦100 ppm
* NC1CCCCCC1 [Surfactant A, Cycloheptylamine] | ≦400 ppm
* O=C(O)C(F)(F)C(F)(F)C(F)(F)C(F)(F)C(F)(F)C(F)(F)F [Surfactant E, Perfluoroheptanoic Acid] | ≦100 ppm

###

- protocolDetails: Preliminary testing of potential surfactants: comments and overall assessment
- Assay type: physicochemical
- conditionsUsed: BOE 7-1; prior to filtration
testReadout: Comments

* NC1CCCC1 | ST too high
* O=C(O)C(F)(F)C(F)(F)C(F)(F)C(F)(F)C(F)(F)C(F)(F)F | Precipitated
* NC1CCCCCCC1 | ST too high
* NC1CCCCCC1 | ST too high
* O=C(O)C(F)(F)C(F)(F)C(F)(F)C(F)(F)F | Precipitated
* O=C(O)C(F)(F)C(F)(F)C(F)(F)C(F)(F)C(F)(F)C(F)(F)C(F)(F)F | Precipitated
* O=C(O)C(F)(F)C(F)(F)C(F)(F)C(F)(F)C(F)(F)C(F)(F)C(F)(F)C(F)(F)F | Precipitated

###

- protocolDetails: Surface tension measurement of surfactant-containing etchant
- Assay type: physicochemical
- conditionsUsed: BOE 7-1 (about 35% NH4F, about 6.3% HF); 25° C.; prior to filtration; incremental additions until ST stabilized or saturation
# Surface Tension per entry
testReadout: Surface Tension

- NC1CCCCCCC1: 65 dynes/cm
- O=C(O)C(F)(F)C(F)(F)C(F)(F)C(F)(F)C(F)(F)C(F)(F)C(F)(F)F: 20 dynes/cm
- O=C(O)C(F)(F)C(F)(F)C(F)(F)C(F)(F)C(F)(F)C(F)(F)C(F)(F)C(F)(F)F: 25 dynes/cm
- O=C(O)C(F)(F)C(F)(F)C(F)(F)C(F)(F)C(F)(F)C(F)(F)F: 20 dynes/cm
- O=C(O)C(F)(F)C(F)(F)C(F)(F)C(F)(F)F: 24 dynes/cm
- NC1CCCCCC1: 72 dynes/cm
- NC1CCCC1: 65 dynes/cm
